Origin of measurements: patent US20230192831A1

Target: recombinant human GREM1 (hGREM1-His; C-terminal 10His tagged, R&D, #5190-GR) (human) (UniProt O60565)
Sequence (O60565 other isoform, or with tags, fused parts or gaps limits assumed, form in doubt): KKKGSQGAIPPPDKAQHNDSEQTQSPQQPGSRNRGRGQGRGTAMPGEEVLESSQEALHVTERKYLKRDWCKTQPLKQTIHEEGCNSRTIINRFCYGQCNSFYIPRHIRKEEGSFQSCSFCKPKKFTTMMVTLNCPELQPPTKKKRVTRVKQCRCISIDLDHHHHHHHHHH
Assay: cell-based or functional assay
attribute-measured: IC50 [M], W-20-17/BRE-luc luciferase bioassay, 100 pM hBMP4 and 10 nM hGREM1-His (M)
Lab book: enter the figure in M, no units written.

Can you look up the measured IC50 [M], W-20-17/BRE-luc luciferase bioassay, 100 pM hBMP4 and 10 nM hGREM1-His of H4H6252P (antibody, human IgG4, V domains shown) VH: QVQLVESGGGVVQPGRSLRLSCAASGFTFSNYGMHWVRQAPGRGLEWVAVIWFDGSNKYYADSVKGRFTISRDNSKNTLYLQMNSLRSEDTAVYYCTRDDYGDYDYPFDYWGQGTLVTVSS VL: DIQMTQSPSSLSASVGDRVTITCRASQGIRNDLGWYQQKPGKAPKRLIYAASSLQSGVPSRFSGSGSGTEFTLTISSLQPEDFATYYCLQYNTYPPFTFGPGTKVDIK for me?
8.2e-10

Which IC50 [M], W-20-17/BRE-luc luciferase bioassay, 100 pM hBMP4 and 10 nM hGREM1-His reading was recorded for the binder H4H2895N (antibody, human IgG4, V domains shown) VH: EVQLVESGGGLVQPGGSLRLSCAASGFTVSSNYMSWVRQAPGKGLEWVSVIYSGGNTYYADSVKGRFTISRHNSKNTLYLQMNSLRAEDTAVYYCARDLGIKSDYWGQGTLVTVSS VL: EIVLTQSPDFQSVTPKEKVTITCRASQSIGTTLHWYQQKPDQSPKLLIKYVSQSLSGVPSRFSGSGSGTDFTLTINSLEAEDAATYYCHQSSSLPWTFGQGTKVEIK ?
5.8e-10
